experiment: Metabolic stability in human liver microsomes assessed as compound remaining preincubated for 5 mins with NADPH regenerating system followed by compound addition and measured upto 120 mins by LC-MS analysis; format: ADME, Microsome; settings: time < 125 min, read-out: Stability
REPORTED ENDPOINT: remaining at 2 h
Just the number plus its unit, please.

QUERY: Indicate its recorded remaining at 2 h; the compound in question is "CCc1cc(=O)n2nc(NCCCN3CCN(C(=O)OC(C)(C)C)CC3)sc2n1"
RESULT: 87%

###

# reported Emax; entries follow
target: Atypical chemokine receptor 3 (Homo sapiens); conditions: HEK293T, filed as activator, dose 300.0 nM
Sequence (P25106 whole entry): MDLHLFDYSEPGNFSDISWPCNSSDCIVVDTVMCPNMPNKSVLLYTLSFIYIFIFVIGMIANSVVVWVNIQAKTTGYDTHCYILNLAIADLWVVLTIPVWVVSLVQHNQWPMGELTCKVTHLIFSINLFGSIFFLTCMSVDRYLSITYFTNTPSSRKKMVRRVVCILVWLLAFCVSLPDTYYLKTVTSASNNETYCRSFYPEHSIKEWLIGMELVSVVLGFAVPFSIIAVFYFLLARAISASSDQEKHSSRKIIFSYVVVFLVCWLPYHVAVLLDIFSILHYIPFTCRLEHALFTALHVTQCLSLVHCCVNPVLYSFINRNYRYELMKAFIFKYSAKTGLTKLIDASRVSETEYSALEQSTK
Description: Activation of human C-terminal ACKR3 transfected in HEK293T cells co-transfected with beta arrestin-1 assessed as induction of beta-arrestin recruitment at 300 nM by Nanoluc-complementation assay relative to CXCL12

Example entries and their recorded answers appear below.
| SMILES | SUBJECT OF TEST | REPORTED ENDPOINT | RESULT |
| --- | --- | --- | --- |
| CCc1cc(=O)n2nc(NCCNc3ccccn3)sc2n1 | Atypical chemokine receptor 3 (Homo sapiens) | Emax | 50% |
| CCc1cc(=O)n2nc(NCCNc3ccc(C)cn3)sc2n1 | Atypical chemokine receptor 3 (Homo sapiens) | Emax | 58% |

QUERY: Tell us which Emax value is on record for "CCc1cc(=O)n2nc(NCCNc3ccc(C)cc3)sc2n1"
RESULT: 45%
